# Assayed System: CXCR4 as expressed on breast tumor cells (MCF-7, MDA MB-231) (human) (UniProt P61073)
# Experiment Notes: homologous competition against ^125I I-TAC on MCF-7 cells pre-incubated with excess MIG (~175 nM)

Binder	IC50
human I-TAC (ligand, UniProt O14625 22-94, looked up, 125I label where used as the radioligand) FPMFKRGRCLCIGPGVKAVKVADIEKASIMYPSNNCDKIEVIITLKENKGQRCLNPKSKQARLIIKKVERKNF	1 nM
